Molecular target: Peroxisome proliferator-activated receptor gamma (Homo sapiens) (UniProt P37231)
Sequence (P37231 whole entry, looked up): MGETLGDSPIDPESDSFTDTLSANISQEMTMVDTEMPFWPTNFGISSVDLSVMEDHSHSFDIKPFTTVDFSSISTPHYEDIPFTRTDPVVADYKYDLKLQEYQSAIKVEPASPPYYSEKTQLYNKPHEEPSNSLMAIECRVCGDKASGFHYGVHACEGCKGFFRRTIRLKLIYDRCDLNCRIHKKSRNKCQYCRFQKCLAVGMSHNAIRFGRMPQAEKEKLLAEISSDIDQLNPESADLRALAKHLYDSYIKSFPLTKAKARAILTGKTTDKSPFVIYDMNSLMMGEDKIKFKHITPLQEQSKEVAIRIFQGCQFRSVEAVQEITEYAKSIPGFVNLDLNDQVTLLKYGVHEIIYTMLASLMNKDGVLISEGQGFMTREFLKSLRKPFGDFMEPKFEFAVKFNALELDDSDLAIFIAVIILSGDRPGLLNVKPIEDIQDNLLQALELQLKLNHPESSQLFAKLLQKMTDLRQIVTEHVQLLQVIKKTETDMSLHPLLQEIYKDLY
Test: partial agonism at human PPARgamma receptor – cell-based, luciferase reporter, luminescence, primary screen (AID 504452);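 note: Cos-1 cells carrying PPARgamma and a response element luciferase reporter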
Details: cell-based PPARg luciferase reporter, at 5 µM, stronger effect = higher value; measured here: relative to full agonist control
outcome.measure: activation (% of full agonist control) (%)
One number for each entry, in %.

Count: 8. Required value per item: activation (% of full agonist control).
1. COc1ccc(C2C(C(=O)N3CCC(C(N)=O)CC3)CC(=O)N2c2ccc(OC)cc2)cc1 (centres undefined)
2. Cc1ccc2nc(N3C(=O)C(O)=C(C(=O)c4ccc(C)o4)C3c3ccco3)sc2c1 (centres undefined)
3. CC(Oc1ccc(F)cc1)C(=O)Nc1ccc(N2CCOCC2)cc1N1CCOCC1 (centres undefined)
4. CC(=O)c1ccc(N2CCN(C(=O)C3CCCN(S(=O)(=O)c4cnc[nH]4)C3)CC2)cc1 (centres undefined)
5. N=c1c(C(=O)NCCc2ccccc2)cc2c(=O)n3ccccc3nc2n1CC1CCCO1 (centres undefined)
6. Cc1ccc2[nH]c(=O)c(CN(Cc3cccs3)Cc3nnnn3CC3CCCO3)cc2c1 (centres undefined)
7. O=C(CN(c1ccc(F)cc1)S(=O)(=O)c1ccccc1)NC1CC2CCC1C2 (centres undefined)
8. COc1ccccc1N1C(=O)C2C(c3ccc(F)cc3)NN(C(=O)c3ccc(C)cc3)C2C1=O (centres undefined)

A:
25.5
45.8
31.2
25.1
34.6
44.1
24.2
30.1

Q: What value of measured activation (% of full agonist control) is listed for Cc1ccc(C)c(/C(O)=C2/C(=O)C(=O)N(CCN3CCOCC3)C2c2ccc(C)o2)c1 (centres undefined) ?
A: 9.22
